molecular target: kappa opioid receptor (Homo sapiens, UniProt P41145); assay: PathHunter DiscoverX β-arrestin2 recruitment (enzyme fragment complementation) assay; assay type: cell-based; settings: * compounds that did not reach plateau; 10 μM
Sequence (P41145 whole entry, the tested form may be a part): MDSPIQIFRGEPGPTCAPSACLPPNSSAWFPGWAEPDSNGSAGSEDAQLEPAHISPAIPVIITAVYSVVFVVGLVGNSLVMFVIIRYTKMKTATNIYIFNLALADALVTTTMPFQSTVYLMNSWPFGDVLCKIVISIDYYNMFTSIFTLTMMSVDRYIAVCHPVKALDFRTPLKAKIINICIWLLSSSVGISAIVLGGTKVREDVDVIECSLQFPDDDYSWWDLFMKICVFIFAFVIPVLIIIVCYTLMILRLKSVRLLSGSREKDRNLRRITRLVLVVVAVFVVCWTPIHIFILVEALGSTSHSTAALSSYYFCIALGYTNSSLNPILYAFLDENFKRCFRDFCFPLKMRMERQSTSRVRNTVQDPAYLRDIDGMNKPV
Sequence (P32121 whole entry partner, the tested form may be a part): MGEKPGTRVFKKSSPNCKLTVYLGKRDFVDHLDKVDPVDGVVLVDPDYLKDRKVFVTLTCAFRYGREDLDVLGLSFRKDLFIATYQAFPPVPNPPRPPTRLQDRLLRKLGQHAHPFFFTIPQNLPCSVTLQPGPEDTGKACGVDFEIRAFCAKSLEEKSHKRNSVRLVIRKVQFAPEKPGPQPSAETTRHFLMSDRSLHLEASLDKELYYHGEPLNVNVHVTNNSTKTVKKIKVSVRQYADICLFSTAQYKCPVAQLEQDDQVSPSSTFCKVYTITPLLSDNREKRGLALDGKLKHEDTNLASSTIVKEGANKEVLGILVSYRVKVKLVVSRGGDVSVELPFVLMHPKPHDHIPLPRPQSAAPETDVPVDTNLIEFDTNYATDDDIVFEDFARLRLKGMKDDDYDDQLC
Reported β-arrestin2 maximum stimulation observed at 10 μM (starred Emax cells / % max at 10 uM) by item:
experimental-readout: β-arrestin2 maximum stimulation observed at 10 μM (starred Emax cells / % max at 10 uM)

[[record]]
molecule = "Cc1ccc(/C=C/c2nnc(-c3nccn3C)n2Cc2nccs2)cc1C(F)(F)F"
test_value = "25.9 (% max at 10 uM) % U60"

[[record]]
molecule = "Cc1ccc(CCc2nnc(-c3ccc4ccccc4c3)n2Cc2cccs2)cc1C(F)(F)F"
test_value = "16* % U60"

[[record]]
molecule = "Cc1ccc(/C=C/c2nnc(-c3ccccn3)n2Cc2cccs2)cc1C(F)(F)F [Compound 47]"
test_value = "36* % U60"

[[record]]
molecule = "Cc1ccc(/C=C/c2nnc(-c3ccccn3)n2Cc2cccs2)cc1C(F)(F)F [49 (UNC9009)]"
test_value = "36.4 (% max at 10 uM) % U60"

[[record]]
molecule = "OC(Cc1ccccc1)c1nnc(-c2ccccn2)n1Cc1ccco1 (stereo not drawn)"
test_value = "0* % U60"

[[record]]
molecule = "Cc1ccc(/C=C/c2nnc(-c3ccccn3)n2Cc2nccs2)cc1C(F)(F)F [50 (UNC9078)]"
test_value = "51.6 (% max at 10 uM) % U60"

[[record]]
molecule = "Cc1ccc(/C=C/c2nnc(-c3ccccn3)n2Cc2nccs2)cc1C(F)(F)F [Compound 48]"
test_value = "51* % U60"

[[record]]
molecule = "Cc1ccc(CCc2nnc(-c3ccncn3)n2Cc2cccs2)cc1C(F)(F)F"
test_value = "66* % U60"

[[record]]
molecule = "FC(Cc1ccccc1)c1nnc(-c2ccccn2)n1Cc1ccco1 (stereo not drawn)"
test_value = "7* % U60"

[[record]]
molecule = "C(=C/c1nnc(-c2ccccn2)n1Cc1ccco1)/c1ccccc1 [Compound 39]"
test_value = "19* % U60"

[[record]]
molecule = "C(=C/c1nnc(-c2ccccn2)n1Cc1ccco1)/c1ccccc1 [Compound 38]"
test_value = "0* % U60"

[[record]]
molecule = "Brc1ccccc1CCc1nnc(-c2ccccn2)n1Cc1cccs1"
test_value = "53* % U60"

[[record]]
molecule = "Cc1ccc(CCc2nnc(-c3ccccn3)n2Cc2ccncc2)cc1C(F)(F)F"
test_value = "12* % U60"

[[record]]
molecule = "FC(Cc1nnc(-c2ccccn2)n1Cc1cccs1)c1ccccc1 (stereo not drawn)"
test_value = "64* % U60"

[[record]]
molecule = "Cc1ccc(/C=C/c2nnc(-c3nccn3C)n2Cc2cccs2)cc1C(F)(F)F [52 (UNC9166)]"
test_value = "37.7 (% max at 10 uM) % U60"

[[record]]
molecule = "Cc1ccc(/C=C/c2nnc(-c3nccn3C)n2Cc2ccco2)cc1C(F)(F)F [Compound 49]"
test_value = "17* % U60"

[[record]]
molecule = "Cc1ccc(CCc2nnc(-c3cccnc3)n2Cc2cccs2)cc1C(F)(F)F"
test_value = "14* % U60"

[[record]]
molecule = "Cc1ccc(/C=C/c2nnc(-c3nccn3C)n2Cc2ccco2)cc1C(F)(F)F [51 (UNC9012)]"
test_value = "17.3 (% max at 10 uM) % U60"

